# subject of test: HLA-A*02:03
# method notes: IEDB peptide-MHC binding, purified MHC/direct/fluorescence; filed as Kd, often an IC50 or EC50 that approximates it; bounds were set here for any values at or beyond the usual limits of such assays
# condition info: source organism: Bacillus anthracis str. A0488
parameter: Kd

Query: Name the recorded Kd for WDAYIPHYV .
Reply: ≥ 20 µM

----------
# subject of test: HLA-B*46:01
# method notes: IEDB peptide-MHC binding, purified MHC/competitive/fluorescence; filed as Kd, often an IC50 or EC50 that approximates it; bounds were set here for any values at or beyond the usual limits of such assays
# condition info: source organism: Vibrio cholerae 2740-80
parameter: Kd

Query: What value of Kd on HLA-B*46:01 does KQLPPLAAW have?
Reply: ≥ 20 µM

Query: What value of Kd on HLA-B*46:01 does IFIRTIYYH have?
Reply: ≥ 20 µM

----------
# subject of test: HLA-B*48:01
# method notes: IEDB peptide-MHC binding, purified MHC/competitive/fluorescence; filed as Kd, often an IC50 or EC50 that approximates it; bounds were set here for any values at or beyond the usual limits of such assays
# condition info: source organism: Mycobacterium leprae
parameter: Kd

Query: Name the recorded Kd for TVGYMYIMK .
Reply: ≥ 20 µM

----------
# subject of test: HLA-A*11:01
# method notes: IEDB peptide-MHC binding, purified MHC/competitive/radioactivity; filed as Kd, often an IC50 or EC50 that approximates it; bounds were set here for any values at or beyond the usual limits of such assays
# condition info: source organism: Lassa virus GA391
parameter: Kd

Query: Name the recorded Kd for NYSRYWYLNH .
Reply: ≥ 30.8 µM

----------
# subject of test: HLA-B*45:06
# method notes: IEDB peptide-MHC binding, purified MHC/competitive/fluorescence; filed as Kd, often an IC50 or EC50 that approximates it; bounds were set here for any values at or beyond the usual limits of such assays
# condition info: source organism: Mycobacterium tuberculosis variant bovis BCG str. Pasteur 1173P2
parameter: Kd

Query: Name the recorded Kd for AIYDTMQYV .
Reply: ≥ 5 µM

Query: Name the recorded Kd for KPIPHRTVL .
Reply: ≥ 5 µM

----------
# subject of test: HLA-A*02:01
# method notes: IEDB peptide-MHC binding, purified MHC/competitive/fluorescence; filed as Kd, often an IC50 or EC50 that approximates it; bounds were set here for any values at or beyond the usual limits of such assays
# condition info: source organism: Cryptosporidium parvum Iowa II
pKd: −log10 of the molar value.
parameter: pKd

Query: What value of pKd on HLA-A*02:01 does KSFSAGMFH have?
Reply: ≤ 4.70

----------
# subject of test: HLA-A*11:01
# method notes: IEDB peptide-MHC binding, purified MHC/direct/fluorescence; filed as Kd, often an IC50 or EC50 that approximates it; bounds were set here for any values at or beyond the usual limits of such assays
# condition info: source organism: West Nile virus
parameter: Kd (nM)
Express your answer in nM, writing the number without its unit.

Query: Name the recorded Kd for LTYRHKVVK .
Reply: 29.8

----------
# subject of test: HLA-B*39:01
# method notes: IEDB peptide-MHC binding, purified MHC/competitive/fluorescence; filed as Kd, often an IC50 or EC50 that approximates it; bounds were set here for any values at or beyond the usual limits of such assays
# condition info: source organism: Giardia lamblia ATCC 50803
parameter: Kd

Query: What value of Kd on HLA-B*39:01 does MARPADASM have?
Reply: ≥ 20 µM

----------
# subject of test: HLA-A*02:03
# method notes: IEDB peptide-MHC binding, purified MHC/competitive/fluorescence; filed as Kd, often an IC50 or EC50 that approximates it; bounds were set here for any values at or beyond the usual limits of such assays
# condition info: source organism: Vibrio antiquarius
parameter: Kd

Query: Name the recorded Kd for FDLFGITLY .
Reply: ≥ 20 µM

----------
# subject of test: HLA-A*29:02
# method notes: IEDB peptide-MHC binding, purified MHC/competitive/radioactivity; filed as Kd, often an IC50 or EC50 that approximates it; bounds were set here for any values at or beyond the usual limits of such assays
# condition info: source organism: Influenza A virus (A/Ann Arbor/6/1960(H2N2))
parameter: pKd
Value format note: pKd is -log10 of concentration (mol/L); just state the number.

Query: What value of pKd on HLA-A*29:02 does RQEMASRGLW have?
Reply: 5.73

----------
# subject of test: HLA-A*31:01
# method notes: IEDB peptide-MHC binding, purified MHC/direct/fluorescence; filed as Kd, often an IC50 or EC50 that approximates it; bounds were set here for any values at or beyond the usual limits of such assays
# condition info: source organism: Vibrio cholerae
parameter: Kd

Query: Name the recorded Kd for GKFFAQAFL .
Reply: ≥ 20 µM

----------
# subject of test: HLA-A*26:01
# method notes: IEDB peptide-MHC binding, purified MHC/direct/fluorescence; filed as Kd, often an IC50 or EC50 that approximates it; bounds were set here for any values at or beyond the usual limits of such assays
# condition info: source organism: Brucella abortus
parameter: Kd

Query: Name the recorded Kd for GRKTPLLCF .
Reply: ≥ 20 µM

----------
# subject of test: HLA-B*40:01
# method notes: IEDB peptide-MHC binding, purified MHC/direct/fluorescence; filed as Kd, often an IC50 or EC50 that approximates it; bounds were set here for any values at or beyond the usual limits of such assays
# condition info: source organism: Influenza A virus (A/swine/Italy/809/1989(H3N2))
parameter: Kd

Query: Name the recorded Kd for EEIRRIWRQ .
Reply: ≥ 20 µM

----------
# subject of test: HLA-A*03:01
# method notes: IEDB peptide-MHC binding, purified MHC/competitive/radioactivity; filed as Kd, often an IC50 or EC50 that approximates it; bounds were set here for any values at or beyond the usual limits of such assays
# condition info: source organism: Mammarenavirus choriomeningitidis
pKd: −log10 of the molar value.
parameter: pKd

Query: Name the recorded pKd for SAFNKKHFDH .
Reply: ≤ 4.65

----------
# subject of test: HLA-A*26:02
# method notes: IEDB peptide-MHC binding, purified MHC/competitive/fluorescence; filed as Kd, often an IC50 or EC50 that approximates it; bounds were set here for any values at or beyond the usual limits of such assays
# condition info: source organism: Mycobacterium tuberculosis variant bovis BCG str. Pasteur 1173P2
parameter: Kd

Query: Name the recorded Kd for QVFKGVVIR .
Reply: ≥ 20 µM

----------
# subject of test: HLA-B*08:01
# method notes: IEDB peptide-MHC binding, purified MHC/competitive/fluorescence; bounds were set here for any values at or beyond the usual limits of such assays
# condition info: source organism: Zaire ebolavirus
parameter: pIC50
Value format note: pIC50 is -log10 of concentration (mol/L); just state the number.

Query: What value of pIC50 on HLA-B*08:01 does DRFKRTSFF have?
Reply: 5.27

----------
# subject of test: HLA-B*07:02
# method notes: IEDB peptide-MHC binding, purified MHC/direct/fluorescence; filed as Kd, often an IC50 or EC50 that approximates it; bounds were set here for any values at or beyond the usual limits of such assays
# condition info: source organism: Vibrio vulnificus YJ016
parameter: Kd

Query: Name the recorded Kd for KRFYQTVGF .
Reply: ≥ 20 µM

----------
Assign pKd to each entry below.
# subject of test: HLA-A*11:01
# method notes: IEDB peptide-MHC binding, purified MHC/competitive/radioactivity; filed as Kd, often an IC50 or EC50 that approximates it; bounds were set here for any values at or beyond the usual limits of such assays
# condition info: source organism: Mammarenavirus brazilense
pKd: −log10 of the molar value.

Query: What value of pKd on HLA-A*11:01 does VTLDFTKFH have?
Reply: 6.68

Query: What value of pKd on HLA-A*11:01 does IMAYVNQAH have?
Reply: ≤ 4.57

Query: What value of pKd on HLA-A*11:01 does FIMAYVNQAH have?
Reply: ≤ 4.37

----------
# subject of test: HLA-A*02:01
# method notes: IEDB peptide-MHC binding, purified MHC/competitive/fluorescence; filed as Kd, often an IC50 or EC50 that approximates it; bounds were set here for any values at or beyond the usual limits of such assays
# condition info: source organism: Human immunodeficiency virus type 1 (ELI ISOLATE)
parameter: pKd
Value format note: pKd is -log10 of concentration (mol/L); just state the number.

Query: Name the recorded pKd for SLGQHIYET .
Reply: 7.92

----------
# subject of test: HLA-A*02:19
# method notes: IEDB peptide-MHC binding, purified MHC/direct/fluorescence; filed as Kd, often an IC50 or EC50 that approximates it; bounds were set here for any values at or beyond the usual limits of such assays
# condition info: source organism: Orthohantavirus negraense
parameter: Kd

Query: What value of Kd on HLA-A*02:19 does SLLFREVWK have?
Reply: ≥ 20 µM

----------
Assign pKd to each entry below.
# subject of test: HLA-A*26:01
# method notes: IEDB peptide-MHC binding, purified MHC/direct/fluorescence; filed as Kd, often an IC50 or EC50 that approximates it; bounds were set here for any values at or beyond the usual limits of such assays
# condition info: source organism: Giardia intestinalis
pKd: −log10 of the molar value.

Query: What value of pKd on HLA-A*26:01 does GYTPGQQFY have?
Reply: ≤ 4.70

Query: What value of pKd on HLA-A*26:01 does DYAMHGTVF have?
Reply: ≤ 4.70
